biological target: recombinant human CDK1/Cyclin B complex (Homo sapiens, UniProt P06493); construct: Rb substrate made in E. coli M15; experiment: CDK1/Cyclin B kinase assay (FlashPlate or HTRF), Rb protein substrate; details: Ki=IC50/(1+[S]/Km)
Sequence (P06493 whole entry): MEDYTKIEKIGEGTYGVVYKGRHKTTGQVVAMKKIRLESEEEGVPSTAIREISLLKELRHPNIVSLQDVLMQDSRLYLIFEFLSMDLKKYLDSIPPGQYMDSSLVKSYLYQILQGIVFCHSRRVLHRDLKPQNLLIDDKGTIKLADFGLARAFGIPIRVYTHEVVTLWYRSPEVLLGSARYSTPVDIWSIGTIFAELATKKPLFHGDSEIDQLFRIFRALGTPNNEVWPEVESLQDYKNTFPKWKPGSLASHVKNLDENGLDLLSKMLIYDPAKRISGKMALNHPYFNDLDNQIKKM
Sequence (P14635 whole entry partner): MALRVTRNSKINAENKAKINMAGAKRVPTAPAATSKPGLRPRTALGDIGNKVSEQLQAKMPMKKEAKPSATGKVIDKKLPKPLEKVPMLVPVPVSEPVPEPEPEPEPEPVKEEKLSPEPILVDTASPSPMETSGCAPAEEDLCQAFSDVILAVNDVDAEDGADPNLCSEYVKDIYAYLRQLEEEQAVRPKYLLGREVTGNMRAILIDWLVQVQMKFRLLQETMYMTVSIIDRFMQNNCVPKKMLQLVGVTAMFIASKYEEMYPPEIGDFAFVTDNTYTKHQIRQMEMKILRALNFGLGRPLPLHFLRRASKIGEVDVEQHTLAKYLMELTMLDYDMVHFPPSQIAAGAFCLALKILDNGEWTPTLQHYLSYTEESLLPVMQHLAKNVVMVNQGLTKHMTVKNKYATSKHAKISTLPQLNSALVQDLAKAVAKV
Structures can show the parent of a compound that is named as a salt.
endpoint: Ki (nM)

[
  {
    "compound": "COc1c(C(=O)N(C)C)cnc2ccc(/C=C3\\SC(N[C@@H]4C[C@H]4c4ccccc4)=NC3=O)cc12 [Example 10]",
    "test.target": "recombinant human CDK1/Cyclin B complex (Homo sapiens, UniProt P06493)",
    "endpoint": "Ki",
    "unit": "nM",
    "test.value": 958
  },
  {
    "compound": "CCOc1c(C#N)cnc2ccc(/C=C3\\SC(NCCn4ccnc4)=NC3=O)cc12 [Example 20]",
    "test.target": "recombinant human CDK1/Cyclin B complex (Homo sapiens, UniProt P06493)",
    "endpoint": "Ki",
    "unit": "nM",
    "test.value": 228
  },
  {
    "compound": "COC(=O)c1cnc2ccc(/C=C3\\SC(N[C@@H](CO)c4ccccc4)=NC3=O)cc2c1OC [Example 5]",
    "test.target": "recombinant human CDK1/Cyclin B complex (Homo sapiens, UniProt P06493)",
    "endpoint": "Ki",
    "unit": "nM",
    "test.value": 179
  },
  {
    "compound": "CCOc1c(C#N)cnc2ccc(/C=C3\\SC(NCCOCCOC)=NC3=O)cc12 [Example 25]",
    "test.target": "recombinant human CDK1/Cyclin B complex (Homo sapiens, UniProt P06493)",
    "endpoint": "Ki",
    "unit": "nM",
    "test.value": 1000
  },
  {
    "compound": "N#Cc1cnc2ccc(/C=C3\\SC(N)=NC3=O)cc2c1SCCCO [Example 50]",
    "test.target": "recombinant human CDK1/Cyclin B complex (Homo sapiens, UniProt P06493)",
    "endpoint": "Ki",
    "unit": "nM",
    "test.value": 65
  }
]

a. CC(C)Oc1c(C#N)cnc2ccc(/C=C3\SC(NN)=NC3=O)cc12 [Example 60, hydrochloride salt]
b. N#Cc1cnc2ccc(/C=C3\SC(N)=NC3=O)cc2c1OC1CCNCC1 [Example 30, hydrochloride]
Query: Parameter check: reported Ki is higher for which label, a or b ? Please identify the chosen entry by its label.
Response: b

P. CCOc1c(C#N)cnc2ccc(/C=C3\SC(N)=NC3=O)cc12 [Example 15]
Q. CCCCOc1c(C#N)cnc2ccc(/C=C3\SC(N)=NC3=O)cc12 [Example 80]
Query: Lab notebook, comparison: P versus Q , higher Ki goes to which? The response must carry the label of the picked entry.
Response: P
(P: 8 nM, Q: 1 nM)

A. CC(C)(C)COc1c(C#N)cnc2ccc(/C=C3\SC(NC4CC4)=NC3=O)cc12 [Example 70]
B. CC(C)Sc1c(C#N)cnc2ccc(/C=C3\SC(N)=NC3=O)cc12 [Example 40]
Query: Parameter check: reported Ki is higher for which label, A or B ? Give the label under which the chosen entry appears.
Response: B
